Test Description: yeast display, Sf9 membrane polyspecificity reagent, FACS + sequencing; frameworks hold sequencing errors
Observable: polyreactivity (PSR sort gate)

Residue String	polyreactivity (PSR sort gate)
QVQLVESGGGLVQAGGSLRLSCAASGSTFRFNAMGWYRQAPGKERELVAAITSTGSTYYADSVKGRFTISRDNAKNTVYLQMNSLKPEDTADYYCAATYPRYRATPRYYSWGQGTQVTVSS	high polyreactivity
QVQLVESGGGLVQAGGSLRLSCAASGNTFAGNAKGCYRQAPGKERELVAAISRSGVTTRYADSVKGRFTISRDNAKNTVYLQMNSLKPEDTAVYYCNADPRLRQTRDYWGQGTQVTVSS	high polyreactivity
QVQLVESGGGLVQAGGSLRLSCAASGSIFSRYAMGWYRQAPGKERELVAAISQRAGSTYYADSVKGRFTISRDNAKNTVYLQMNSLKPEDTAVYYCAARRRGRKERGEDYWGQGTQVTVSS	high polyreactivity
QVQLVESGGGLVQAGGSLRLSCAASGRTFKRYAMGWYRQAPGKERELVAGISRGGNTNYADSVKGRFTISRDNAKNTVYLQMNSLNPEDTAVYYCNKDYSFEYSLRNRDYWGQGTQVTVSS	low polyreactivity

Okay, next one:
Which measured polyreactivity (PSR sort gate) value corresponds to `QVQLVESGGGLVQAGGSLRLSCAASGRIFYGNVMGWYRQAPGKERELVAVITSGGNTNYADSVKGRFTISRDNAKNTVYLQMNSLKPEDTAVYYCATAVVAGVWGYDYWGQGTQVTVSS` ?
low polyreactivity

Source listed as the nanobody polyreactivity screen of Harvey et al. (2022).
